Measured Yeast cell proliferation rates KRS-AIMP3 (%) values are reported for all entries that follow.
Measured On: binding between KRS and AIMP3 (Homo sapiens, UniProt Q15046)
Construct: expressed in transfected cells; host or cells: yeast cells (co-transformed)
Sequence (Q15046 whole entry): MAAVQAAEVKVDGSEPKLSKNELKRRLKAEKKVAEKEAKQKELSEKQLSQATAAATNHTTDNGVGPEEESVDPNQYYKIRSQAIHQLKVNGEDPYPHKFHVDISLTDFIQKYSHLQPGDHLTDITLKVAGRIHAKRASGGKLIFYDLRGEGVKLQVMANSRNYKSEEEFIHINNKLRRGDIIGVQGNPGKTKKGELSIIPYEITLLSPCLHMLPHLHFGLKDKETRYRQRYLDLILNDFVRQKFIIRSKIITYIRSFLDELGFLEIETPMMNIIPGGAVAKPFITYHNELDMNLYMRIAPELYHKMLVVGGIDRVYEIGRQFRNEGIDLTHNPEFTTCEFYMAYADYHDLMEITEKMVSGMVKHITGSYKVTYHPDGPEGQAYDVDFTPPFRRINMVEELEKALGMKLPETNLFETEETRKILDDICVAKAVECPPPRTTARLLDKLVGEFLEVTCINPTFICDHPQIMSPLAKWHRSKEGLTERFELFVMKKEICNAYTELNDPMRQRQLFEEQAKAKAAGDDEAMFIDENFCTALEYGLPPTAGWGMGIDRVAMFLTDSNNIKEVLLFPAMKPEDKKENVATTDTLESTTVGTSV
Experiment Description: Yeast Two Hybrid specificity test, LexA-KRS / B42-AIMP3 co-transformed yeast cells
Assay type: cell-based
Condition Set: 1 μL of 20 mM DMSO solution per 200 μL culture; 30° C., 6 days; absorbance 540 nm; non-treated control = 100%
Hi! Could you send only the number? It should be in %, unit omitted.

Worked cases, answers included:
{"Compound": "CCC(C(=O)O)n1c(=NC(=O)c2ccc(C)cc2)sc2cc(C(F)(F)F)ccc21 (stereo not shown) [Example 155]", "Reading": 100.0}
{"Compound": "CCOc1ccc2c(c1)sc(=NC(=O)c1cccc(Cl)c1)n2C(CC)C(=O)O (stereo not shown) [Example 56]", "Reading": 104.7}
{"Compound": "CCC(C(=O)O)n1c(=NC(=O)c2ccc(OC)cc2)sc2c(F)c(F)ccc21 (stereo not shown) [Example 585]", "Reading": 84.0}

Now look at this entry.
Which Yeast cell proliferation rates KRS-AIMP3 (%) value belongs to Cc1ccc(C(=O)N=c2sc3c(Cl)cccc3n2C(C)C(=O)O)cc1 (stereo not shown) [Example 109] ?
98.2
